Sourced from the Immune Epitope Database (IEDB)

- Experimental System: HLA-B*46:01
- Procedure Text: IEDB peptide-MHC binding, purified MHC/direct/fluorescence; filed as Kd, often an IC50 or EC50 that approximates it; bounds were set here for any values at or beyond the usual limits of such assays
- Experimental Conditions: source organism: Escherichia coli O157:H7

| Sequence Code | Kd |
| --- | --- |
| PILPKLFIL | ≥ 20 µM |

###

- Experimental System: HLA-A*23:01
- Procedure Text: IEDB peptide-MHC binding, purified MHC/direct/fluorescence; filed as Kd, often an IC50 or EC50 that approximates it; bounds were set here for any values at or beyond the usual limits of such assays
- Experimental Conditions: source organism: Brucella abortus 2308
pKd: −log10 of the molar value.

| Sequence Code | pKd |
| --- | --- |
| YWMGGTTYF | 7.27 |

###

Measured Kd, listed per entry for reference.
- Experimental System: HLA-A*29:02
- Procedure Text: IEDB peptide-MHC binding, purified MHC/competitive/radioactivity; filed as Kd, often an IC50 or EC50 that approximates it; bounds were set here for any values at or beyond the usual limits of such assays
- Experimental Conditions: source organism: SARS coronavirus Tor2

| Sequence Code | Experimental System | Kd |
| --- | --- | --- |
| LMANLAPHL | HLA-A*29:02 | 3650 nM |
| AYNVVNKGHF | HLA-A*29:02 | 978 nM |
| ASEFSSLPSY | HLA-A*29:02 | 102 nM |
| LYKLMGHFSW | HLA-A*29:02 | 8090 nM |
| STSQKSIVAY | HLA-A*29:02 | 44.5 nM |
| FIDTIKSLDY | HLA-A*29:02 | 506 nM |
| GTDSGFAAY | HLA-A*29:02 | 52.9 nM |
| MWLSYFVASF | HLA-A*29:02 | 38.5 nM |
| AWEILKFLI | HLA-A*29:02 | 4100 nM |
| FWITAIYVF | HLA-A*29:02 | 26.9 nM |
| ESVKTQFNY | HLA-A*29:02 | 31.2 nM |
| LTALRLCAY | HLA-A*29:02 | 136 nM |
| GLAAEWVLAY | HLA-A*29:02 | 69.4 nM |

###

- Experimental System: HLA-A*32:15
- Procedure Text: IEDB peptide-MHC binding, purified MHC/competitive/fluorescence; filed as Kd, often an IC50 or EC50 that approximates it; bounds were set here for any values at or beyond the usual limits of such assays
- Experimental Conditions: source organism: West Nile virus
Observed Property: Kd

| Sequence Code | Experimental System | Result |
| --- | --- | --- |
| ETTNWLWAF | HLA-A*32:15 | 25.1 nM |

###

- Experimental System: HLA-B*15:01
- Procedure Text: IEDB peptide-MHC binding, purified MHC/competitive/radioactivity; filed as Kd, often an IC50 or EC50 that approximates it; bounds were set here for any values at or beyond the usual limits of such assays
- Experimental Conditions: source organism: Dengue virus 1 Brazil/97-11/1997
Observed Property: Kd (nM)

| Sequence Code | Experimental System | Observed Property | Quantitative Readout |
| --- | --- | --- | --- |
| MQRKHGGML | HLA-B*15:01 | Kd | 100 |
